Origin of the recorded values: PubChem BioAssay AID1961

EXPERIMENTAL_DETAILS: GPR55 agonists via beta-arrestin recruitment, primary screen, imaging, U2OS cells, beta-arrestin-GFP redistribution (AID 1961);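 further: U2OS osteosarcoma cells stably expressing GPR55 and beta-arrestin-GFP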
STUDY_CONDITIONS: measured here: cytotoxicity, cells analyzed, at 10 µM
About 140 (0.048%) of roughly 290,000 compounds were called active. The list comes from a sample in which actives are over-represented; it also holds close analogues and randomly drawn compounds.
RECORDED_METRIC: cell count (cells)

>>> print(df.to_string())
                               entry_smiles  measured_value
0  N[C@@H](Cc1c[nH]c2ccccc12)c1nnc(SCc2ccc(Cl)cc2)o1             304
1  CN1/C(=C\C=C2C(=O)NC(=O)NC2=O)C(C)(C)c2ccccc21             294
2  CN1/C(=C\C=C2C(=O)NC(=S)NC2=O)C(C)(C)c2ccccc21             268
3     CN1/C(=C\C=Nc2ccccc2)C(C)(C)c2ccccc21             360
